Assay: Measurement of saturated solubility
Format: physicochemical
Details: distilled water at 25° C., 3 hours
measurement.type: Concentration of acetamiprid (ppm)
Answers are plain numbers, in ppm.

For orientation, consider the following solved cases.
[[record]]
molecule = "CC(=NC#N)N(C)Cc1ccc(Cl)nc1.CO.Oc1ccc(C(c2ccc(O)cc2)C(c2ccc(O)cc2)c2ccc(O)cc2)cc1 [Clathrate compound 2]"
units_label = "ppm"
recorded_value = 79

[[record]]
molecule = "CC(=NC#N)N(C)Cc1ccc(Cl)nc1.CC(=NC#N)N(C)Cc1ccc(Cl)nc1.Oc1ccc(C(c2ccc(O)cc2)C(c2ccc(O)cc2)c2ccc(O)cc2)cc1 [Clathrate compound 1]"
units_label = "ppm"
recorded_value = 134


Moving on to another molecule below.
Concentration of acetamiprid for CC(=NC#N)N(C)Cc1ccc(Cl)nc1.CCO.Oc1ccc(C(c2ccc(O)cc2)C(c2ccc(O)cc2)c2ccc(O)cc2)cc1 [Clathrate compound 3] ?
156
